Parameter: log10(IC50). Scope: all listed entries.
# ASSAYED_SYSTEM: T1, human CD47-Fc (human, UniProt Q08722 19-139)
# T1 construct: also called hCD47; human CD47-Fc protein; not shown: Fc part
# T1 sequence (Q08722 19-139 limits assumed): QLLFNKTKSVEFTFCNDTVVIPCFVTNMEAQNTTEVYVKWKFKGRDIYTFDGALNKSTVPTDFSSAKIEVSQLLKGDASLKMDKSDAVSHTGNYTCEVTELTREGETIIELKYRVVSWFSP
# ASSAY_COMMENT: HTRF epitope competition; competitor Tb-labelled h5F9G4 IgG1 on biotinylated human CD47-Fc
Values are log10 of IC50 in µg/mL.

VH1.12/VL1.8, human IgG1null (antibody, V domains shown, IgG1null; also called VH1.12/VL8) VH: QVQLVQSGAEVKKPGASVKVSCKASGYTFTNYAMHWVRQAPGQRLEWMGTIYPGNDNTKYNQKFQGRVTITADTSASTAYMELSSLRSEDTAVYYCARGGFRAMDYWGQGTLVTVSS VL: DIVMTQSPLSLPVTPGEPASISCRSSQSLLHSNAYNYLGWYLQKPGQSPQLLIYKGSNRFSGVPDRFSGSGSGTDFTLKISRVEAEDVGVYYCMQASHVPYTFGQGTKLEIK
1.21
VH1.8/VL1.2, human IgG1null (antibody, V domains shown, IgG1null; also called Clone VH1.8/VL1.2) VH: QVQLVQSGAEVKKPGASVKVSCKASGYTFTNYAMHWVRQAPGQRLEWMGTIYPGNDDTKYNQKFQGRVTITADTSASTAYMELSSLRSEDTAVYYCARGGFRAMDYWGQGTLVTVSS VL: DIVMTQSPLSLPVTPGEPASISCRSSQSLLHSNGNTYLGWYLQKPGQSPQLLIYKGSNRFSGVPDRFSGSGSGTDFTLKISRVEAEDVGVYYCFQASQVPYTFGQGTKLEIK
-0.23
VH1.8/VL1.5, human IgG1null (antibody, V domains shown, IgG1null; also called Clone VH1.8/VL1.5) VH: QVQLVQSGAEVKKPGASVKVSCKASGYTFTNYAMHWVRQAPGQRLEWMGTIYPGNDDTKYNQKFQGRVTITADTSASTAYMELSSLRSEDTAVYYCARGGFRAMDYWGQGTLVTVSS VL: DIVMTQSPLSLPVTPGEPASISCRSSQSLLHSNAYNYLGWYLQKPGQSPQLLIYKGSNRFSGVPDRFSGSGSGTDFTLKISRVEAEDVGVYYCFQASHVPYTFGQGTKLEIK
-0.04
VH1.8/VL1.4, human IgG1null (antibody, V domains shown, IgG1null; also called Clone VH1.8/VL1.4) VH: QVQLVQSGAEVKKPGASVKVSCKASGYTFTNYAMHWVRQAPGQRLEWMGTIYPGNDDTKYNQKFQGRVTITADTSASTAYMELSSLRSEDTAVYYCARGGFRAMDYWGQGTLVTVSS VL: DIVMTQSPLSLPVTPGEPASISCRSSQSLLHSNAYNYLGWYLQKPGQSPQLLIYKGSNRFSGVPDRFSGSGSGTDFTLKISRVEAEDVGVYYCFQASQVPYTFGQGTKLEIK
0.47

Attention now turns to another entry.
Task item: Item VH1.1/VL1.6, human IgG1null (antibody, V domains shown, cf. claim 50); IgG1null; also called Clone VH1.1/VL1.6) VH: QVQLVQSGAEVKKPGASVKVSCKASGYTFTNYAMHWVRQAPGQRLEWMGTIYPGNDDTKYNQKFQGRVTITADTSASTAYMELSSLRSEDTAVYYCARGGYRAEDYWGQGTLVTVSS VL: DIVMTQSPLSLPVTPGEPASISCRSSQSLLHSNANTYLGWYLQKPGQSPQLLIYKGSNRFSGVPDRFSGSGSGTDFTLKISRVEAEDVGVYYCFQASHVPYTFGQGTKLEIK has what recorded log10(IC50)?
Reply: 0.84

Attribution: patent US20260015420A1
